Ok so here's the combined literature set: Kd for Tyrosine-protein kinase JAK2 (Homo sapiens).
Form entry: value (nM) — number only.

{"MOLECULE": "NC(=O)c1nnc(N[C@@H]2CCCC[C@@H]2N)nc1Nc1cccc2cc[nH]c12", "TEST_SYSTEM": "Tyrosine-protein kinase JAK2 (Homo sapiens)", "READING_UNIT": "nM", "Kd": 53}
{"MOLECULE": "CC(=O)NCSC[C@@H]1NC(=O)[C@H]([C@@H](C)O)NC(=O)[C@H](NC(C)=O)CC(=O)NCCCC[C@@H](C(=O)NC(Cc2cnc[nH]2)C(N)=O)NC(=O)[C@@H](CCCNC(=N)N)NC(=O)[C@H](Cc2cccc3ccccc23)NC(=O)[C@H]([C@@H](C)O)NC(=O)[C@H](CCC(N)=O)NC(=O)[C@@H](CCCNC(=N)N)NC1=O (stereo partly drawn)", "TEST_SYSTEM": "Tyrosine-protein kinase JAK2 (Homo sapiens)", "READING_UNIT": "nM", "Kd": 35000}

// next entry
Note down Kd recorded for NC(=O)Nc1sc(-c2ccc(F)cc2)cc1C(N)=O 22
